Target: T1, Recombinant murine glypican-3 (aa 25-557), R&D Systems (murine, UniProt Q8CFZ4 25-557)
T1 construct: also called muGPC3; Mu GPC3-His
T1 sequence (Q8CFZ4 25-557 limits assumed, form in doubt): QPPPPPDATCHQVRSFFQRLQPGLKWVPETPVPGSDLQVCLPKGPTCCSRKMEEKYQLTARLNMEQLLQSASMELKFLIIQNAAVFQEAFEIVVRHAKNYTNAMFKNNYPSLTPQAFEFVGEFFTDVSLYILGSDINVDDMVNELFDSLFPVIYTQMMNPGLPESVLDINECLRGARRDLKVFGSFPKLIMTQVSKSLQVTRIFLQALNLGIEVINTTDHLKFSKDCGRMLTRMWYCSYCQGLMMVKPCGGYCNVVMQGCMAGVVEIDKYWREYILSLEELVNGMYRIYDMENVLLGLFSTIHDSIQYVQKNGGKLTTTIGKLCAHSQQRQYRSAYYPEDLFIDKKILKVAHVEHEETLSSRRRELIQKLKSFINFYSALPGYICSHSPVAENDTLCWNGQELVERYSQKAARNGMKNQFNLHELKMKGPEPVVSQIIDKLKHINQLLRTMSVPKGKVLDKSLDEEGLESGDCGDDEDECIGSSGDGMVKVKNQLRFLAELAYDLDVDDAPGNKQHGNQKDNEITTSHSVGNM
Test: SPR, Biacore T100, GPC3-His immobilised, 1:1 fit
Fold affinity (KD) difference vs alkylated parent strictly less than 4 fold = MET. Otherwise NOT MET.

ADX_6077_F02 DG→DA mutant, alkylated (designed binder, C-terminal cysteine alkylated, also called P1-055660; PI-055660) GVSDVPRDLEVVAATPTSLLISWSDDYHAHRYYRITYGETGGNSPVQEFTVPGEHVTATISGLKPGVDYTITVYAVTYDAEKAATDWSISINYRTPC :: NOT MET
ADX_6077_F02 alkylated (designed binder, C-terminal cysteine (of PC) alkylated with iodoacetamide, also called alkylated (capped) Adnectin; alkylated parent) MGVSDVPRDLEVVAATPTSLLISWSDDYHAHRYYRITYGETGGNSPVQEFTVPGEHVTATISGLKPGVDYTITVYAVTYDGEKAATDWSISINYRTPCHHHHHH :: MET
ADX_6077_F02 DG→EG mutant, alkylated (designed binder, C-terminal cysteine alkylated, also called P1-055673) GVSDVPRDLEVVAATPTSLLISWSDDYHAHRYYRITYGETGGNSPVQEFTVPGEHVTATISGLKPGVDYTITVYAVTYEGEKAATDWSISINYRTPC :: NOT MET
ADX_6077_F02 DG→DV mutant, alkylated (designed binder, C-terminal cysteine alkylated, also called P1-055672) GVSDVPRDLEVVAATPTSLLISWSDDYHAHRYYRITYGETGGNSPVQEFTVPGEHVTATISGLKPGVDYTITVYAVTYDVEKAATDWSISINYRTPC :: NOT MET

Record ADX_6077_F02 DG→DL mutant, alkylated (designed binder, C-terminal cysteine alkylated, also called P1-055671) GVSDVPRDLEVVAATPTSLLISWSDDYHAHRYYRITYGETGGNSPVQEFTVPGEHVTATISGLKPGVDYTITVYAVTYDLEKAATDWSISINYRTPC : is its Fold affinity (KD) difference vs alkylated parent strictly below 4 fold? MET
